Test system: MDA-MB-231 cells
Experiment: MTT proliferation assay, MDA-MB-231
Format: cell-based
Conditions: Homo sapiens, MDA-MB-231, 72 h, read-out: Mean IC50 ±SD in MDA-MB-231
valueKind: IC50

Recall the recorded IC50 for CCN(CC)C(=S)SSCCO with MDA-MB-231 cells and state it.
> 10 µM
